biological target: c-Met kinase (Homo sapiens)
Sequence (P08581 25-1390): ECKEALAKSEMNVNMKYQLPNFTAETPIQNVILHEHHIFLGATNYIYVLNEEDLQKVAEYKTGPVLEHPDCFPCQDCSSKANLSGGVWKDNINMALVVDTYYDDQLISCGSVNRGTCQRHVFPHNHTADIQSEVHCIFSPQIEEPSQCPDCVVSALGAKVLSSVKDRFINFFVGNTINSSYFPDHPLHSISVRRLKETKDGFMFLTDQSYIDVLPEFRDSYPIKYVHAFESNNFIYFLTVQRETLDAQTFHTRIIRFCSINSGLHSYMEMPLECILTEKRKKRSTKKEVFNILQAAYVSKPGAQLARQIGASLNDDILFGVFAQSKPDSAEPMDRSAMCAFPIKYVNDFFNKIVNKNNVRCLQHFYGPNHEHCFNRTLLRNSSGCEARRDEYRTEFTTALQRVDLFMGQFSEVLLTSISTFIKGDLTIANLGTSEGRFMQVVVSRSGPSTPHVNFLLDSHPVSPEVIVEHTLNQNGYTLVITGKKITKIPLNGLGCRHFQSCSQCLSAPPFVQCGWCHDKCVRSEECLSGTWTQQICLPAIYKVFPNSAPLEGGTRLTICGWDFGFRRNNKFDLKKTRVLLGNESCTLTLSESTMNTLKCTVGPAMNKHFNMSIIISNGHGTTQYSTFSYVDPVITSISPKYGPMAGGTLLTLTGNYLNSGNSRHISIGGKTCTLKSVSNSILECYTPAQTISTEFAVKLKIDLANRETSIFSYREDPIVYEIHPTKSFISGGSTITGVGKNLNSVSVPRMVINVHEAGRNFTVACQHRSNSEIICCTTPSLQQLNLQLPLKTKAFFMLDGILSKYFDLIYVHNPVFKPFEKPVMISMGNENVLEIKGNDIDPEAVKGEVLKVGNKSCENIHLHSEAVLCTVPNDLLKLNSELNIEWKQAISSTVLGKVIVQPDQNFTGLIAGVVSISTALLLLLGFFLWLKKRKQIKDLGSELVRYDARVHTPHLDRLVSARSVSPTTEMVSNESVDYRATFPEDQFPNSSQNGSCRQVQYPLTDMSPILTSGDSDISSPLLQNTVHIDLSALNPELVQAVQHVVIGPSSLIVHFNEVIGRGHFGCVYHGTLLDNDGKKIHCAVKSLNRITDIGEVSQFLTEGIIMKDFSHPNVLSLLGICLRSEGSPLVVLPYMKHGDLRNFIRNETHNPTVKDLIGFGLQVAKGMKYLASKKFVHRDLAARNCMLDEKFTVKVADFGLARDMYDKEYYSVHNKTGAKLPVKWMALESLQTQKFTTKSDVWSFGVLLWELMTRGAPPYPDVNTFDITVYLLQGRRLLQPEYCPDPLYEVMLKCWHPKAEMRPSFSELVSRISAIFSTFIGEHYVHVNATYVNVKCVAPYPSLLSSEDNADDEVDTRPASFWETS
Quantity measured: pIC50
Expect pIC50 as a plain number equal to -log10 of the molar concentration.

Can you look up the measured pIC50 of O=C(/C=C/c1ccc(Br)cc1)c1ccc(OCCCSc2nncs2)cc1 for me? 7.55

---

assay: MTT cytotoxicity against normal cells BEAS2B; type: cell-based; details: human, BEAS2B cells (normal human epithelium cells)
pIC50: −log10 of the molar value.
Quantity measured: pIC50

Looking for the measured pIC50 of O=C(/C=C/c1ccc(Br)cc1)c1ccc(OCCCSc2nncs2)cc1 , can you help? < 4.19

---

biological target: FGFR1 (Homo sapiens, UniProt P11362)
Sequence (P11362 22-822): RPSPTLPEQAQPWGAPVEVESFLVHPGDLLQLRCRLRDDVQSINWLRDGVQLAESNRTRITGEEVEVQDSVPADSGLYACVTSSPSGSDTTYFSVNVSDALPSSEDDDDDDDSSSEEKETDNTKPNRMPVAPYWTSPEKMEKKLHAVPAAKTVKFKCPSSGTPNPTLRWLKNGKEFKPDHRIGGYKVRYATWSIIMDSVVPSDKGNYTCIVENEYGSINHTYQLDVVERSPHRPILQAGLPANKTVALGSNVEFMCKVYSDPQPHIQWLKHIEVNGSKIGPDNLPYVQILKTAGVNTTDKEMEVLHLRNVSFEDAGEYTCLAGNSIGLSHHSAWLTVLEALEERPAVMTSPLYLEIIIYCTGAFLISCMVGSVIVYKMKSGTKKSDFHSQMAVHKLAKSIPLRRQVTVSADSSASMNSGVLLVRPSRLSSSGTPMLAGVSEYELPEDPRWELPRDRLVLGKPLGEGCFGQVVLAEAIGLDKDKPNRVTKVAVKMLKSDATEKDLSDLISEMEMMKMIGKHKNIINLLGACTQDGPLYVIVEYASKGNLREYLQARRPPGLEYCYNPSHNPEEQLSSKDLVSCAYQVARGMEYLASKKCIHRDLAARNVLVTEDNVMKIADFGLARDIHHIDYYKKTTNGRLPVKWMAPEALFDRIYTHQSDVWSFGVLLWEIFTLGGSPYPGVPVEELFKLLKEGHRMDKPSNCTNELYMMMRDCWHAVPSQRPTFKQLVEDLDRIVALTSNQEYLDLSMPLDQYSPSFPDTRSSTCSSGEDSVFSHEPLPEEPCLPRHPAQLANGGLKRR
pIC50: −log10 of the molar value.
Quantity measured: pIC50

Form field: reported pIC50 of O=C(/C=C/c1ccc(Br)cc1)c1ccc(OCCCSc2nncs2)cc1 [ZW97] < 5.82
